system: Striatum; assay: Biodistribution in Sprague-Dawley rat striatum at 1.48 to 2.22 MBq, iv measured at 30 mins by gamma counting analysis; type: ADME, organism-based; details: in vivo, 0.5 h
ENDPOINT: Drug uptake

ITEM_SMILES | OBSERVED_RESULT
Cn1cc(-c2ccncc2)c(-c2ccc(OCc3cc([18F])c4ccccc4n3)cc2)n1 | Active
Cn1cc(-c2ccncc2)c(-c2ccc(OCc3nc4ccccc4cc3OCC[18F])cc2)n1 | Active
Cn1cc(-c2ccncc2)c(-c2ccc(OCc3cc(CCC[18F])c4ccccc4n3)cc2)n1 | Active
Cn1cc(-c2ccncc2)c(-c2ccc(OCc3cc(OCC[18F])c4ccccc4n3)cc2)n1 | Active
Cn1cc(-c2ccncc2)c(-c2ccc(OCc3cc(COCC[18F])c4ccccc4n3)cc2)n1 | Active
Cn1cc(-c2ccncc2)c(-c2ccc(OCc3cc(C[18F])c4ccccc4n3)cc2)n1 | Active
Cn1cc(-c2ccncc2)c(-c2ccc(OCc3cc(OCCOCCOCC[18F])c4ccccc4n3)cc2)n1 | Active

* * *

molecular target: cAMP and cAMP-inhibited cGMP 3',5'-cyclic phosphodiesterase 10A (Homo sapiens, UniProt Q9Y233); assay: Inhibition of recombinant human PDE10A assessed as reduction of [3H]-cAMP hydrolysis preincubated for 5 mins followed by [3H]-cAMP addition measured after 20 mins by scintillation proximity assay
Sequence (Q9Y233 whole entry): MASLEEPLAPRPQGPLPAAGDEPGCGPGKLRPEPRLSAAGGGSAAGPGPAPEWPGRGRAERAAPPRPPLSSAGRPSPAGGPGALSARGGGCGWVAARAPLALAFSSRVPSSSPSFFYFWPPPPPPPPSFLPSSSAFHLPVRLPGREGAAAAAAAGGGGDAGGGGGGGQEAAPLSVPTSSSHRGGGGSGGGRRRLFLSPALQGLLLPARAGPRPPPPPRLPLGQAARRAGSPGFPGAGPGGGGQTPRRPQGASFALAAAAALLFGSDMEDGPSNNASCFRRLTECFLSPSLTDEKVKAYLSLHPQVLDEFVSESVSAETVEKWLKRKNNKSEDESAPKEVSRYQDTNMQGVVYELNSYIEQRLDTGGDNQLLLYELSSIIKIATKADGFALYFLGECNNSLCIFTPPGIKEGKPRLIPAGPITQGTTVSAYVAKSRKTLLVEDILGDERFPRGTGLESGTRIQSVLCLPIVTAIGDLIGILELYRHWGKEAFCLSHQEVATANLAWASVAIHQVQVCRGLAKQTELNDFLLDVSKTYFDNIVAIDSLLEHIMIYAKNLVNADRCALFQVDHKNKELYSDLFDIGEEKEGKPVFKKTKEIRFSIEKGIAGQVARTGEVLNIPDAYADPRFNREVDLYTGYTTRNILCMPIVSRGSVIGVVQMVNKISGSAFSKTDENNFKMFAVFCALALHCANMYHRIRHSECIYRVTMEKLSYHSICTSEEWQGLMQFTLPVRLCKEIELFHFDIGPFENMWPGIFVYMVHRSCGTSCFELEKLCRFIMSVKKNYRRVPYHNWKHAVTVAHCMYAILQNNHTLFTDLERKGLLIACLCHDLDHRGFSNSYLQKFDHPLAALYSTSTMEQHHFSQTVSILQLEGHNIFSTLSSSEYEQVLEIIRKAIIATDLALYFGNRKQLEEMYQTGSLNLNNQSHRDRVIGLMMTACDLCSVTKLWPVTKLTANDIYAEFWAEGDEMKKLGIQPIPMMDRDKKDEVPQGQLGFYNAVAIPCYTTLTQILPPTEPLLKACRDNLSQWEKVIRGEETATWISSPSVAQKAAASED
Mark yes only when IC50 stays strictly below 0.7 nM. Values equal to the cut-off are no.

ITEM_SMILES | LABEL_VALUE
Cn1ncc(-c2ccncc2)c1-c1ccc(OCc2cc(NCCF)c3ccccc3n2)cc1 | yes
Cn1ncc(-c2ccncc2)c1-c1ccc(OCc2cc(OCCOCCOCCOCCF)c3ccccc3n2)cc1 | yes
Cn1ncc(-c2ccncc2)c1-c1ccc(OCc2cc(OCCOCCF)c3ccccc3n2)cc1 | yes
Cn1cc(-c2ccncc2)c(-c2ccc(OCc3cc(CCCF)c4ccccc4n3)cc2)n1 | no

* * *

biological target: cGMP-inhibited 3',5'-cyclic phosphodiesterase 3B (Homo sapiens, UniProt Q13370); experiment: Inhibition of recombinant human PDE3B assessed as reduction of [3H]-cAMP hydrolysis preincubated for 5 mins followed by [3H]-cAMP addition measured after 20 mins by scintillation proximity assay
Sequence (Q13370 whole entry): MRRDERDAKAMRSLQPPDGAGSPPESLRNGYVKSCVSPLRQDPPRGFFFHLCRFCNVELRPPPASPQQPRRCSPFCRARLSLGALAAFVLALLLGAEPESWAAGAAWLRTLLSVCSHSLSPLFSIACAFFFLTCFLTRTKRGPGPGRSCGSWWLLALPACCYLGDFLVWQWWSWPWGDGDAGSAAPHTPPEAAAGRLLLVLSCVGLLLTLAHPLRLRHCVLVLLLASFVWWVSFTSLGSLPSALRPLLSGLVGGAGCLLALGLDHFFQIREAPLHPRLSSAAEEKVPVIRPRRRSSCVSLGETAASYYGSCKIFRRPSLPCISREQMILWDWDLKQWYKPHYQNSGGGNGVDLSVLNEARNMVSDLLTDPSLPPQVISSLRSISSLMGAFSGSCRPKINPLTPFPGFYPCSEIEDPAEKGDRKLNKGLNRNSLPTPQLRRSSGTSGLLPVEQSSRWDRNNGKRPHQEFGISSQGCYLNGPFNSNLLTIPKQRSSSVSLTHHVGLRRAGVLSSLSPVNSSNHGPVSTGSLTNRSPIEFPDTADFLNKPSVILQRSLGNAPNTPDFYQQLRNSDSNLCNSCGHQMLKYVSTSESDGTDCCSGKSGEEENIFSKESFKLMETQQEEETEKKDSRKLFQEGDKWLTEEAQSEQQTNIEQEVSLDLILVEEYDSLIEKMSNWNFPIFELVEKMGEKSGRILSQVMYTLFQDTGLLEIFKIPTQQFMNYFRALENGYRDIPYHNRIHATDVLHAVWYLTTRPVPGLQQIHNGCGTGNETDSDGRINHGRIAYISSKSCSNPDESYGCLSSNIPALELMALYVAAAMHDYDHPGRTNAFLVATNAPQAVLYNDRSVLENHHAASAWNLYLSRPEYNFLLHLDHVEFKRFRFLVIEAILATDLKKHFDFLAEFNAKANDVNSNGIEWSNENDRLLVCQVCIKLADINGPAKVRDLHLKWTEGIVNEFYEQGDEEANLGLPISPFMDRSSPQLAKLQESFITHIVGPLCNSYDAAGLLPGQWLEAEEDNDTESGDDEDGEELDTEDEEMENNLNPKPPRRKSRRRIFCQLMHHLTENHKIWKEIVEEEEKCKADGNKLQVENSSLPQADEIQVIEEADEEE
ENDPOINT: log10 IC50 (log10 of the value in µM)

ITEM_SMILES | OBSERVED_RESULT
Cn1cc(-c2ccncc2)c(-c2ccc(OCc3cc(NCCF)c4ccccc4n3)cc2)n1 | 0.54
Cn1cc(-c2ccncc2)c(-c2ccc(OCc3cc(CF)c4ccccc4n3)cc2)n1 | 0.75
Cn1cc(-c2ccncc2)c(-c2ccc(OCc3cc(OCCF)c4ccccc4n3)cc2)n1 | 0.89
Cn1cc(-c2ccncc2)c(-c2ccc(OCc3cc(OCCOCCOCCF)c4ccccc4n3)cc2)n1 | 1.79
Cn1ncc(-c2ccncc2)c1-c1ccc(OCc2cc(OCCOCCF)c3ccccc3n2)cc1 | 1.70
Cn1ncc(-c2ccncc2)c1-c1ccc(OCc2cc(OCCF)c3ccccc3n2)cc1 | 0.75
Cn1ncc(-c2ccncc2)c1-c1ccc(OCc2cc(OCCOCCOCCF)c3ccccc3n2)cc1 | 1.71
Cn1ncc(-c2ccncc2)c1-c1ccc(OCc2cc(-n3cc(CCF)nn3)c3ccccc3n2)cc1 | 1.21
Cn1cc(-c2ccncc2)c(-c2ccc(OCc3cc(OCCOCCOCCOCCF)c4ccccc4n3)cc2)n1 | 1.47

* * *

Each item that follows carries a reported Drug uptake.
tested on: Kidney; experiment: Biodistribution in Sprague-Dawley rat kidney at 1.48 to 2.22 MBq, iv measured at 60 mins by gamma counting analysis; type: ADME, organism-based; conditions: in vivo, 1 h

ITEM_SMILES | Drug uptake [% ID/g]
Cn1cc(-c2ccncc2)c(-c2ccc(OCc3cc(OCCOCCOCC[18F])c4ccccc4n3)cc2)n1 | 1.037
Cn1cc(-c2ccncc2)c(-c2ccc(OCc3cc(OCC[18F])c4ccccc4n3)cc2)n1 | 0.765
Cn1cc(-c2ccncc2)c(-c2ccc(OCc3cc([18F])c4ccccc4n3)cc2)n1 | 0.533
Cn1cc(-c2ccncc2)c(-c2ccc(OCc3nc4ccccc4cc3OCC[18F])cc2)n1 | 0.841
Cn1cc(-c2ccncc2)c(-c2ccc(OCc3cc(COCC[18F])c4ccccc4n3)cc2)n1 | 0.485
Cn1cc(-c2ccncc2)c(-c2ccc(OCc3cc(CCC[18F])c4ccccc4n3)cc2)n1 | 1.216
Cn1cc(-c2ccncc2)c(-c2ccc(OCc3cc(C[18F])c4ccccc4n3)cc2)n1 | 0.573

* * *

organism: Homo sapiens; assay: Selectivity ratio of IC50 for recombinant human PDE3A to IC50 for recombinant human PDE10A
List of Ratio IC50 values.

ITEM_SMILES | Ratio IC50
Cn1cc(-c2ccncc2)c(-c2ccc(OCc3cc(OCCOCCOCCOCCF)c4ccccc4n3)cc2)n1 | > 210
Cn1cc(-c2ccncc2)c(-c2ccc(OCc3cc(COCCF)c4ccccc4n3)cc2)n1 | > 210
Cn1cc(-c2ccncc2)c(-c2ccc(OCc3nc4ccccc4cc3OCCF)cc2)n1 | > 210
Cn1cc(-c2ccncc2)c(-c2ccc(OCc3cc(OCCOCCOCCF)c4ccccc4n3)cc2)n1 | > 210
Cn1ncc(-c2ccncc2)c1-c1ccc(OCc2ccc3cc(F)ccc3n2)cc1 | > 210

* * *

organism: Homo sapiens; test: Selectivity ratio of IC50 for recombinant human PDE4B to IC50 for recombinant human PDE10A
Consider the following molecules and their measured Ratio IC50 readings.

ITEM_SMILES | Ratio IC50
Cn1cc(-c2ccncc2)c(-c2ccc(OCc3cc(OCCF)c4ccccc4n3)cc2)n1 | > 210
Cn1ncc(-c2ccncc2)c1-c1ccc(OCc2cc(OCCF)c3ccccc3n2)cc1 | > 210
Cn1cc(-c2ccncc2)c(-c2ccc(OCc3cc(NCCF)c4ccccc4n3)cc2)n1 | > 210

* * *

Drug uptake: recorded values
tested on: Brain; test: Biodistribution in Sprague-Dawley rat brain at 1.48 to 2.22 MBq, iv measured at 5 mins by gamma counting analysis; type: ADME, organism-based; conditions: in vivo
ENDPOINT: Drug uptake (% ID/g)

ITEM_SMILES | UNIT_OF_MEASURE | OBSERVED_RESULT
Cn1cc(-c2ccncc2)c(-c2ccc(OCc3cc(OCCOCCOCC[18F])c4ccccc4n3)cc2)n1 | % ID/g | 0.353
Cn1cc(-c2ccncc2)c(-c2ccc(OCc3cc([18F])c4ccccc4n3)cc2)n1 | % ID/g | 0.41
Cn1cc(-c2ccncc2)c(-c2ccc(OCc3cc(CCC[18F])c4ccccc4n3)cc2)n1 | % ID/g | 0.114
Cn1cc(-c2ccncc2)c(-c2ccc(OCc3cc(C[18F])c4ccccc4n3)cc2)n1 | % ID/g | 0.128
Cn1cc(-c2ccncc2)c(-c2ccc(OCc3nc4ccccc4cc3OCC[18F])cc2)n1 | % ID/g | 0.092
Cn1cc(-c2ccncc2)c(-c2ccc(OCc3cc(COCC[18F])c4ccccc4n3)cc2)n1 | % ID/g | 0.213
Cn1cc(-c2ccncc2)c(-c2ccc(OCc3cc(OCC[18F])c4ccccc4n3)cc2)n1 | % ID/g | 0.118

* * *

target: 3',5'-cyclic-AMP phosphodiesterase 4A (Homo sapiens, UniProt P27815); assay: Inhibition of recombinant human PDE4A assessed as reduction of [3H]-cAMP hydrolysis preincubated for 5 mins followed by [3H]-cAMP addition measured after 20 mins by scintillation proximity assay
Sequence (P27815 whole entry): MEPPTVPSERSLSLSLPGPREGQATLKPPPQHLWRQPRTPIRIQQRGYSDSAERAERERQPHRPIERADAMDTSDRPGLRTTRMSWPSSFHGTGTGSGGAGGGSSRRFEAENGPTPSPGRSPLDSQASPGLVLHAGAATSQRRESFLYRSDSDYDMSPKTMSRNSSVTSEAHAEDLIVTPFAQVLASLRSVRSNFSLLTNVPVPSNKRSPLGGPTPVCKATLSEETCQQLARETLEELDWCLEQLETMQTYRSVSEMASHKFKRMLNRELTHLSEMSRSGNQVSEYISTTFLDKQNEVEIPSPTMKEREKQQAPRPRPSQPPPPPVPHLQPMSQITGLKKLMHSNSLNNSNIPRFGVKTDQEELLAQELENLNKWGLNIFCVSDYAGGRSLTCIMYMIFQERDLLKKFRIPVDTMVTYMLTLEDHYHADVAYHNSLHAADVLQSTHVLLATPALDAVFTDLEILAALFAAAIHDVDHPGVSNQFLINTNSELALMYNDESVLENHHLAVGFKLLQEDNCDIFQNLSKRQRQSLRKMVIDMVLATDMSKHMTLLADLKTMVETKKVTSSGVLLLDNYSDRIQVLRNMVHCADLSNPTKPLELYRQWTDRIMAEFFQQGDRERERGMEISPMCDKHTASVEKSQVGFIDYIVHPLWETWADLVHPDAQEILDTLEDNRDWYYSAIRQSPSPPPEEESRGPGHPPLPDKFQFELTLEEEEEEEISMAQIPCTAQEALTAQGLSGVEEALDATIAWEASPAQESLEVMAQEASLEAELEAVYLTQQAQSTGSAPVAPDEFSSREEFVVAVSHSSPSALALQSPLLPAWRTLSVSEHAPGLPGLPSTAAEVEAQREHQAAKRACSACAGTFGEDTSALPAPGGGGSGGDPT
Each record here notes measured IC50.

ITEM_SMILES | IC50 [µM]
Cn1ncc(-c2ccncc2)c1-c1ccc(OCc2ccc3cc(F)ccc3n2)cc1 | 9.73
Cn1ncc(-c2ccncc2)c1-c1ccc(OCc2cc(OCCOCCF)c3ccccc3n2)cc1 | 12.3
Cn1cc(-c2ccncc2)c(-c2ccc(OCc3ccc4cc(F)ccc4n3)cc2)n1 | 2.33
Cn1cc(-c2ccncc2)c(-c2ccc(OCc3cc(CCCF)c4ccccc4n3)cc2)n1 | 0.46
Cn1ncc(-c2ccncc2)c1-c1ccc(OCc2cc(OCCOCCOCCF)c3ccccc3n2)cc1 | 8.36
Cn1cc(-c2ccncc2)c(-c2ccc(OCc3nc4ccccc4cc3OCCF)cc2)n1 | 1.76

* * *

system: Liver; test: Biodistribution in Sprague-Dawley rat liver at 1.48 to 2.22 MBq, iv measured at 5 mins by gamma counting analysis; format: ADME, organism-based; conditions: in vivo

ITEM_SMILES | Drug uptake
Cn1cc(-c2ccncc2)c(-c2ccc(OCc3cc(COCC[18F])c4ccccc4n3)cc2)n1 | 3.99 % ID/g
Cn1cc(-c2ccncc2)c(-c2ccc(OCc3cc(C[18F])c4ccccc4n3)cc2)n1 | 10.16 % ID/g
Cn1cc(-c2ccncc2)c(-c2ccc(OCc3cc(OCCOCCOCC[18F])c4ccccc4n3)cc2)n1 | 4.74 % ID/g
Cn1cc(-c2ccncc2)c(-c2ccc(OCc3cc([18F])c4ccccc4n3)cc2)n1 | 6.87 % ID/g
Cn1cc(-c2ccncc2)c(-c2ccc(OCc3nc4ccccc4cc3OCC[18F])cc2)n1 | 4.24 % ID/g
Cn1cc(-c2ccncc2)c(-c2ccc(OCc3cc(CCC[18F])c4ccccc4n3)cc2)n1 | 9.99 % ID/g
Cn1cc(-c2ccncc2)c(-c2ccc(OCc3cc(OCC[18F])c4ccccc4n3)cc2)n1 | 6.88 % ID/g

src = ChEMBL document CHEMBL3627597
